- Species: Bos taurus
- procedure_details: Activation of actin-stimulated bovine cardiac myosin S1 fragment ATPase activity in sarcomere at 5 uM after 10 mins by spectrophotometric analysis relative to control
measure_name: Activity (%)

[
  {
    "compound": "c1ccc(CCCc2nnc(CCC3CCCCC3)o2)cc1",
    "measurement_unit": "%",
    "Activity": 53.1
  },
  {
    "compound": "c1ccc(CCCNc2nnc(-c3ccccc3)o2)cc1",
    "measurement_unit": "%",
    "Activity": 42.6
  },
  {
    "compound": "c1ccc(CCCc2nc(-c3ccccc3)no2)cc1",
    "measurement_unit": "%",
    "Activity": 56.4
  },
  {
    "compound": "c1ccc(CCCc2nc(Cc3ccccc3)no2)cc1",
    "measurement_unit": "%",
    "Activity": 60.3
  },
  {
    "compound": "COC(=O)N1CCN(Cc2cccc(NC(=O)Nc3ccc(C)nc3)c2F)CC1 [OMECAMTIV MECARBIL]",
    "measurement_unit": "%",
    "Activity": 49.9
  },
  {
    "compound": "c1ccc(CCCc2nnc(Cc3ccccc3)o2)cc1",
    "measurement_unit": "%",
    "Activity": 60.2
  },
  {
    "compound": "c1ccc(CCCc2nnc(-c3ccccc3)o2)cc1",
    "measurement_unit": "%",
    "Activity": 55.2
  },
  {
    "compound": "c1ccc(CCCc2nnc(CCc3ccccc3)o2)cc1",
    "measurement_unit": "%",
    "Activity": 45.3
  }
]

* * *

- Organism: Bos taurus
- procedure_details: Activation of actin-stimulated bovine cardiac myosin S1 fragment ATPase activity in sarcomere at 10 uM after 10 mins by spectrophotometric analysis relative to control
measure_name: Activity (%)

// solved cases for Activity follow
[
  {
    "given_smiles": "Fc1ccc(Cc2nnc(CCCc3ccccc3)o2)cc1",
    "Activity, %": 4.2
  },
  {
    "given_smiles": "c1ccc(CCCCNc2nnc(-c3ccccc3)o2)cc1",
    "Activity, %": 32.8
  },
  {
    "given_smiles": "NS(=O)(=O)c1ccc(-c2nnc(CCCc3ccccc3)o2)cc1",
    "Activity, %": 22.5
  },
  {
    "given_smiles": "CN(C)S(=O)(=O)c1ccc(CCCc2nnc(-c3ccccc3)o2)cc1",
    "Activity, %": 11.9
  }
]

(1) COc1ccc(-c2nnc(CCCc3ccccc3)o2)cc1OC
(2) c1ccc(CCCNc2nnc(-c3ccncc3)o2)cc1
Input line: Two entries are listed, 1 and 2 . Which one carries the higher Activity? Reply with the label of the item you choose.
Output line: 1

* * *

- Species on record: Gallus gallus
- procedure_details: Activation of actin-stimulated chicken gizzard smooth muscle myosin S1 fragment ATPase activity at 100 uM after 10 mins by spectrophotometric analysis relative to control
measure_name: Activity (%)

// solved cases for Activity follow
[
  {
    "given_smiles": "c1ccc(CCCc2nnc(Cc3ccccc3)o2)cc1",
    "Activity, %": -3.9
  },
  {
    "given_smiles": "c1ccc(CCCc2nnc(CCc3ccccc3)o2)cc1",
    "Activity, %": 4.1
  }
]

(I) COC(=O)N1CCN(Cc2cccc(NC(=O)Nc3ccc(C)nc3)c2F)CC1
(II) Cc1ccc2c(c1)C(=O)[C@]1(O)CCN(c3ccccc3)C1=N2
(III) c1ccc(CCCc2nc(Cc3ccccc3)no2)cc1
(IV) c1ccc(CCCNc2nnc(-c3ccccc3)o2)cc1
Input line: Ascending by Activity, please. Please reply with the labels ordered as requested. Many thanks.
Output line: II, I, IV, III
(II: -37.3%, I: -3.8%, IV: 2.3%, III: 4.2%)
